Biological target: T1, recombinant human LTBP1-proTGFβ1 complex (Homo sapiens, UniProt P01137)
T1 construct: made in house; host or cells: Expi293F cells, transient co-transfection
T1 sequence (P01137 30-390): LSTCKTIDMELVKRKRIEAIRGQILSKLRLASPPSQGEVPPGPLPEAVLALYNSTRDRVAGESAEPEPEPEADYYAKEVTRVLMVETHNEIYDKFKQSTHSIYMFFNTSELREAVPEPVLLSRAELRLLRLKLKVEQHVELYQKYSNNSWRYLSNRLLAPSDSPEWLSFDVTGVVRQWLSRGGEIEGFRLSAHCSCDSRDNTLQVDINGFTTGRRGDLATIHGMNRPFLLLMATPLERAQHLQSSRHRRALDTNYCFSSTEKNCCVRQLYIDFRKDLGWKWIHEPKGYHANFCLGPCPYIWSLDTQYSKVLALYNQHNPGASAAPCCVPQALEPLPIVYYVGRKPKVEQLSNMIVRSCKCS
T1 sequence (Q14766 873-1507 partner): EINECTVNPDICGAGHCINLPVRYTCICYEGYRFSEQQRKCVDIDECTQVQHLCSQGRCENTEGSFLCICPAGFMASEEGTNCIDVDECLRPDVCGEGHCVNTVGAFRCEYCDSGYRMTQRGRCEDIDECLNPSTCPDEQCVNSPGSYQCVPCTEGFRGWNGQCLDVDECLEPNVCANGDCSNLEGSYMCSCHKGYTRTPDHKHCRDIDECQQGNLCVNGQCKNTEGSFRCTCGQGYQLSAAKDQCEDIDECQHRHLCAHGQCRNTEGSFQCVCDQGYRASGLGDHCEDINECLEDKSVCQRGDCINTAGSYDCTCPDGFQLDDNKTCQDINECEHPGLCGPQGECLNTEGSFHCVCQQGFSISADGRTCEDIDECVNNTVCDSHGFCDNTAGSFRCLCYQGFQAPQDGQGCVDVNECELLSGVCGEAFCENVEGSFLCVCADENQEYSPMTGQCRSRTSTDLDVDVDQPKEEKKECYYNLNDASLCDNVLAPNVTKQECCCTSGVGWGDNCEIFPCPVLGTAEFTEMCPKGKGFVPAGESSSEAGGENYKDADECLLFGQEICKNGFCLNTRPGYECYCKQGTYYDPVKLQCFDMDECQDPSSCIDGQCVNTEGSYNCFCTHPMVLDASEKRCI
Test: Octet (Biolayer Interferometry) in vitro kinetic binding
Settings: in M
ASSAY ENDPOINT: (B) hLTBP1, Matrix-associated proTGFb1 (KD)
// print number alone

Sample answers from the record:
{"columns": ["MOLECULE", "REPORTED VALUE"],
 "data": [
  ["Ab28: monoclonal antibody; VH SEQ ID NO: 136, VL SEQ ID NO: 15 (antibody, V domains shown) VH: EVQLVESGGGLVQPGGSLRLSCAASGFTFSSFSMDWVRQAPGKGLEWVSYISPDASTIYYADSVKGRFTISRDNAKNSLYLQMNSLRAEDTAVYYCVRGVLDYGDMLDPWGQGTLVTVSS VL: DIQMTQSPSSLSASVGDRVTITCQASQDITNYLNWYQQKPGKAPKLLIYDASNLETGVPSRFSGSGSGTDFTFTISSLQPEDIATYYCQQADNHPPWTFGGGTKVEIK", "3.40E−10"],
  ["Ab11: monoclonal antibody; VH SEQ ID NO: 239, VL SEQ ID NO: 241 (antibody, V domains shown) VH: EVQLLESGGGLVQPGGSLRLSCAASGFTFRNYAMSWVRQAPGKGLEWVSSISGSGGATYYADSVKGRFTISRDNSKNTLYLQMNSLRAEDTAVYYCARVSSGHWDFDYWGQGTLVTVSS VL: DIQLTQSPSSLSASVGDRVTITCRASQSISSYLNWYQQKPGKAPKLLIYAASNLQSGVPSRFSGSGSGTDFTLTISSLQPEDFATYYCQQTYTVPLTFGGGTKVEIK", "1.67E−10"],
  ["Ab29: monoclonal antibody; VH SEQ ID NO: 137, VL SEQ ID NO: 15 (antibody, V domains shown) VH: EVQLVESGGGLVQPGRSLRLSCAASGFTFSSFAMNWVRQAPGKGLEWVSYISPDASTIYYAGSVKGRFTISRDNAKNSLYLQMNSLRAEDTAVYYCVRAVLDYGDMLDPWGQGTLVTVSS VL: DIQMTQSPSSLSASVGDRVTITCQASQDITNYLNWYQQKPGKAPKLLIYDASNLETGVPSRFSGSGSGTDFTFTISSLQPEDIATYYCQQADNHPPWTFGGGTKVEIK", "1.89E−10"]
]}

The record that follows has no (B) hLTBP1, Matrix-associated proTGFb1 (KD) shown yet.
Prompt line: Give its (B) hLTBP1, Matrix-associated proTGFb1 (KD) value. Item: Ab31: monoclonal antibody; VH SEQ ID NO: 139, VL SEQ ID NO: 15 (antibody, V domains shown) VH: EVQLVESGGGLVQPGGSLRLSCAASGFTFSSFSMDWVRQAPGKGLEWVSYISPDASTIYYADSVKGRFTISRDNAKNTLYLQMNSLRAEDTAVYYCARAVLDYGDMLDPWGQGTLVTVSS VL: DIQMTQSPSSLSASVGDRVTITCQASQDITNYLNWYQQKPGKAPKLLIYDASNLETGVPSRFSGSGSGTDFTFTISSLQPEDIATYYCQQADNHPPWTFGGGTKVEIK
Response line: 2.36E−10
